Where these numbers come from: patent US11833160B2

// melting point lookup, one value per entry

{"columns": ["smiles", "melting point"],
 "data": [
  ["C[C@H](CCC(=O)Nc1ccccc1S)[C@H]1CC[C@H]2[C@@H]3[C@@H](O)C[C@@H]4C[C@H](O)CC[C@]4(C)[C@H]3CC[C@]12C", "157 to 158 °C"],
  ["C[C@H](CCC(=O)NCc1ccc(C(=O)Nc2cc(-c3ccccc3)ccc2N)cc1)[C@H]1CC[C@H]2[C@@H]3[C@@H](O)C[C@@H]4C[C@H](O)CC[C@]4(C)[C@H]3CC[C@]12C", "163 to 165 °C"]
]}

Read the next record carefully.
-- ask Reported melting point, molecule `C[C@H](CCC(=O)NCCCCCC(=O)NO)[C@H]1CC[C@H]2[C@@H]3[C@@H](O)C[C@@H]4C[C@H](O)CC[C@]4(C)[C@H]3CC[C@]12C` : ____
-- reply 125 to 127 °C

###

// pIC50 lookup, one value per entry
Target: UniProt:Q9UKV0
Sequence (Q9UKV0 604-1066 isoform Q9UKV0-5): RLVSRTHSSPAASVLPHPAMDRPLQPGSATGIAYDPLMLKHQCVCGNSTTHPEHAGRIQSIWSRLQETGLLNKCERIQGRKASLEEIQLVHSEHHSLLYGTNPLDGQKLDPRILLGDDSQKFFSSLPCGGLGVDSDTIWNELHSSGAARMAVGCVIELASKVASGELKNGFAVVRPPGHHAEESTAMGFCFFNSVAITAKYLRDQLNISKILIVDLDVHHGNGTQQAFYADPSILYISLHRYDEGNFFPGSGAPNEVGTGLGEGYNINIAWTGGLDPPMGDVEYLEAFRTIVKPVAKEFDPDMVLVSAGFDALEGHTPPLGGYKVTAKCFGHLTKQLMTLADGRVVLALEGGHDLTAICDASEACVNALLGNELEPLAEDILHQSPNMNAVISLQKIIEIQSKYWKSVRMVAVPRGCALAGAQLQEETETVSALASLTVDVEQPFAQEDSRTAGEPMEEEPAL
Reminder that pIC50 is minus the log10 of a molar concentration.

{"columns": ["smiles", "pIC50"],
 "data": [
  ["C[C@H](CCC(=O)NCc1ccc(C(=O)NO)cc1)[C@H]1CC[C@H]2[C@@H]3[C@@H](O)C[C@@H]4C[C@H](O)CC[C@]4(C)[C@H]3CC[C@]12C", 4.87]
]}

-- ask Recall the recorded pIC50 for `C[C@H](CCC(=O)NCC(=O)NCc1ccc(C(=O)NO)cc1)[C@H]1CC[C@H]2[C@@H]3[C@@H](O)C[C@@H]4C[C@H](O)CC[C@]4(C)[C@H]3CC[C@]12C` with UniProt:Q9UKV0 and state it.
-- reply 4.94

###

Target: human HDAC10 (Homo sapiens)
Sequence (Q969S8 1-631): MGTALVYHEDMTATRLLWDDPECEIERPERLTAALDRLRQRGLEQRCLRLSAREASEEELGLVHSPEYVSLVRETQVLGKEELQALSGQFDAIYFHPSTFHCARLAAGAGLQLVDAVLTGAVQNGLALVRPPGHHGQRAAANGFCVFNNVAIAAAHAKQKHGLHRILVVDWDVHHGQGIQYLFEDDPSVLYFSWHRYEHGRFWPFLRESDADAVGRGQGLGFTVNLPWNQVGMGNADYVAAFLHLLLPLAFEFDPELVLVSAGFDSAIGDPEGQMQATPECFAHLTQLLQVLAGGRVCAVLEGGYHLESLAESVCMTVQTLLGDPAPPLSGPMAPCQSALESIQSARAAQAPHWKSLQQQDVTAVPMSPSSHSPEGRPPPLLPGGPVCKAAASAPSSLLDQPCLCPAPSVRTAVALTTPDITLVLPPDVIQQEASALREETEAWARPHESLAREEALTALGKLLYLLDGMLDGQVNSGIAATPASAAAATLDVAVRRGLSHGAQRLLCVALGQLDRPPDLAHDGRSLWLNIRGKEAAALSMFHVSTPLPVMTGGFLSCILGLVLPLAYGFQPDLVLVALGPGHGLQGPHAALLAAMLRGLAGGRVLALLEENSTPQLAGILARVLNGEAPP
// IC50 lookup, one value per entry
// return the numeric value with its unit appended

{"columns": ["smiles", "IC50"],
 "data": [
  ["C[C@H](CCC(=O)NCC(=O)NCc1ccc(C(=O)NO)cc1)[C@H]1CC[C@H]2[C@@H]3[C@@H](O)C[C@@H]4C[C@H](O)CC[C@]4(C)[C@H]3CC[C@]12C", "21.8 µM"]
]}

-- ask Reported IC50, compound `C[C@H](CCC(=O)NCc1ccc(C(=O)NO)cc1)[C@H]1CC[C@H]2[C@@H]3[C@@H](O)C[C@@H]4C[C@H](O)CC[C@]4(C)[C@H]3CC[C@]12C` : ____
-- reply 24.5 µM
